Here the recorded pIC50 is given for each entry.
Target: Human Glucocorticoid Receptor (Homo sapiens, UniProt P04150)
Construct: endogenous in cells
Sequence (P04150 1-777): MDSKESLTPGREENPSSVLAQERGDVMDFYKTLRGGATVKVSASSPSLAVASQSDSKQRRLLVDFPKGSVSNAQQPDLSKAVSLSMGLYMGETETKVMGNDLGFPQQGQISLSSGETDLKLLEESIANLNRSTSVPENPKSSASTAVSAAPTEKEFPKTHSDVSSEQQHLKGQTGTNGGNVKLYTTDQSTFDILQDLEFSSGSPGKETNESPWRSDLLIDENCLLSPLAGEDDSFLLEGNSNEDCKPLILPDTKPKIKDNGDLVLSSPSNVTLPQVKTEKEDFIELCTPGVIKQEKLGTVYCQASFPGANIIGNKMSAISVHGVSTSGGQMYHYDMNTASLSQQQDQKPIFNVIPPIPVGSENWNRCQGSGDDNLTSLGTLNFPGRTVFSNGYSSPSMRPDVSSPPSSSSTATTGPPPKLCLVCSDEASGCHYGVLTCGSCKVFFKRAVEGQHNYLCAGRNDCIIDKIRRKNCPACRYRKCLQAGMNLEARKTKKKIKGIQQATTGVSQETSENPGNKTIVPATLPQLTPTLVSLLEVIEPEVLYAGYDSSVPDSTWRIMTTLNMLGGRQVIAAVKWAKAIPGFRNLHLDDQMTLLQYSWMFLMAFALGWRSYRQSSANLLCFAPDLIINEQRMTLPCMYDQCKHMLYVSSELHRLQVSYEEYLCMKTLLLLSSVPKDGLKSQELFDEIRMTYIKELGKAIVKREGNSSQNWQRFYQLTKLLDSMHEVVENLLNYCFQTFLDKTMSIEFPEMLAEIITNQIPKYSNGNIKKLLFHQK
Assay: Competition Binding in IM-9 Human Glucocorticoid Receptor (GR IM-9)
Conditions: cytosol from IM-9 cell line, 1.5 nM [3H]-Dexamethasone, 4° C. for 6 hours
pIC50: −log10 of the molar value.

As a guide, the following entries are already answered.
Molecule: COC(=O)C1=C(N)NC(C)=C(C#N)C1c1csc2c(C#N)cccc12 (stereo not shown) [Example D12]
Subject of test: Human Glucocorticoid Receptor (Homo sapiens, UniProt P04150)
pIC50: > 7.00

Molecule: COC(=O)C1=C(C2CC2)NC(N)=C(C(=O)OCc2ccc(F)cc2)C1c1csc2c(C#N)cccc12 (stereo not shown) [Example D23]
Subject of test: Human Glucocorticoid Receptor (Homo sapiens, UniProt P04150)
pIC50: > 7.00

Molecule: CC(=O)C1=C(C)NC(C2CC2)=C(C(=O)OC2COC2)C1c1csc2c(Br)cccc12 (stereo not shown) [Example C81]
Subject of test: Human Glucocorticoid Receptor (Homo sapiens, UniProt P04150)
pIC50: > 7.00

Molecule: CC(=O)C1=C(C)NC(C)=C(C(=O)OCc2cccc(-c3cccnc3)c2)C1c1csc2ncccc12 (stereo not shown) [Example L4]
Subject of test: Human Glucocorticoid Receptor (Homo sapiens, UniProt P04150)
pIC50: > 7.00

Molecule: C#CCOC(=O)C1=C(C)NC(N)=C(C(=O)OCC2CC2)C1c1csc2c(C#N)cccc12 (stereo not shown) [Example D47]
Subject of test: Human Glucocorticoid Receptor (Homo sapiens, UniProt P04150)
pIC50: > 7.00

Molecule: COC(=O)C1=C(C)NC(N)=C(C(=O)OCC2CC2)C1c1csc2c(C#N)cc(C#N)cc12 (stereo not shown) [Example D48]
Subject of test: Human Glucocorticoid Receptor (Homo sapiens, UniProt P04150)
pIC50: > 7.00

Molecule: CC(=O)C1=C(C)NC(C)=C(C(=O)OCc2ccccc2)C1c1csc2ncccc12 (stereo not shown) [Example C39]
Subject of test: Human Glucocorticoid Receptor (Homo sapiens, UniProt P04150)
pIC50: > 7.00

Molecule: COC(=O)C1=C(COCCN)NC(C)=C(C(C)=O)C1c1csc2c(C#N)cccc12 (stereo not shown) [Example C116]
Subject of test: Human Glucocorticoid Receptor (Homo sapiens, UniProt P04150)
pIC50: 6.00 to 7.00

Molecule: CC1=C(C(N)=O)C(c2csc3c(C#N)cccc23)C(C(=O)OCC2CC2)=C(N)N1 (stereo not shown) [Example D35]
Subject of test: Human Glucocorticoid Receptor (Homo sapiens, UniProt P04150)
pIC50: 6.00 to 7.00

Molecule: COC(=O)C1=C(C=O)NC(C2CC2)=C(C(=O)OC)C1c1csc2c(C#N)cccc12 (stereo not shown) [Example C117]
Subject of test: Human Glucocorticoid Receptor (Homo sapiens, UniProt P04150)
pIC50: > 7.00

Name the recorded pIC50 of the molecule listed here: CC(=O)C1=C(C)NC(C)=C(C(=O)OCC2CCOCC2)C1c1csc2ccc(Cl)cc12 (stereo not shown) [Example C43] 6.00 to 7.00

// fetch pIC50 given entry CC(=O)C1=C(C)NC(C2CC2)=C(C(=O)OC(C)C)C1c1csc2c(Br)cccc12 (stereo not shown) [Example C82] > 7.00

Give the reported pIC50 for this molecule. CC(=O)C1=C(C)NC(C)=C(C(=O)OCc2ccccc2Br)C1c1csc2ncccc12 (stereo not shown) [Example C67] > 7.00

Read the entry CC(=O)C1=C(C)NC(C2CC2)=C(C(=O)OC(C)(C)c2ccc(F)cc2)C1c1csc2c(Br)cccc12 (stereo not shown) [Example C96] and write its reported pIC50. 6.00 to 7.00

Provide pIC50 value for the following molecule: COC(=O)C1=C(C2CC2)NC(C2CC2)=C(C(=O)OC)C1c1csc2ccc(Cl)cc12 [Example J25-a] 6.00 to 7.00

Input CC(=O)C1=C(C)NC(C)=C(C(=O)OCc2cccc(CN3CCN(C)CC3)c2)C1c1csc2c(Br)cccc12 (stereo not shown) [Example C108] , output reported pIC50. > 7.00

From: patent US11453660B2
